target: calcium channels; test: 3H-nitrendipine binding (nitrendipine displacement) test; settings: 3H-nitrendipine 0.1 nM, rat brain cortex membranes, pH 7.4, 25° C., 60 min
pIC50: −log10 of the molar value. Structures can show the parent of a compound that is named as a salt.
Assay Endpoint: pIC50

>  <Compound>
COc1cc(CN2CCN(CCCCOc3ccccc3C3(C(C)C)C(=O)N(C)c4ccccc43)CC2)cc(OC)c1OC (stereo not shown)

>  <pIC50>
7.36

$$$$

A: COc1ccc(CCN(C)CCCCOc2ccccc2C2(C(C)C)C(=O)N(C)c3ccccc32)cc1OC (stereo not shown) [Example 3, hydrochloride]
B: COc1ccc(CCN(C)CCCCOc2ccccc2C2(Cc3ccccc3)C(=O)N(C)c3ccccc32)cc1OC (stereo not shown) [Example 1, hydrochloride]
C: CC(C)C1(c2ccccc2OCCCCN2CCN(CCCC(c3ccc(F)cc3)c3ccc(F)cc3)CC2)C(=O)N(C)c2ccccc21 (stereo not shown) [Example 5, dihydrochloride]
Order field: pIC50 | Direction: descending (largest first) List the labels according to the requested ordering.
C, A, B
